Reference for the values: ChEMBL document CHEMBL1759968

test system: FM3A; assay: Cytostatic activity against mouse FM3A cells after 2 days by coulter counting analysis; format: functional, cell-based; settings: 48 h
Value kind: log10 IC50 (log10 of the value in µM)

{"columns": ["Molecule", "Value kind", "Numeric readout"],
 "data": [
  ["O=C1C=CCO[C@@H]1n1cc(F)c(O)nc1=O", "log10 IC50", -0.64],
  ["O=C1C=CCO[C@@H]1n1cc(C(F)(F)F)c(O)nc1=O", "log10 IC50", 1.66],
  ["O=c1[nH]c(=O)n([C@@H]2O[C@H](CO)[C@@H](O)[C@H]2O)cc1F [5-FLUOROURIDINE]", "log10 IC50", -1.85],
  ["O=C1C=CCO[C@@H]1n1ccc(O)nc1=O", "log10 IC50", 2.08],
  ["O=c1[nH]c(=O)n([C@H]2C[C@H](O)[C@@H](CO)O2)cc1F [FLOXURIDINE]", "log10 IC50", -2.03],
  ["O=c1[nH]cc(F)c(=O)[nH]1 [FLUOROURACIL]", "log10 IC50", -0.74],
  ["C=C1[C@H](O)[C@H](O)CO[C@@H]1n1cc(C)c(O)nc1=O", "log10 IC50", 2.89]
]}

====

test system: FM3A; experiment: Cytostatic activity against mouse FM3A cells after 2 days by coulter counting analysis; format: functional, cell-based; conditions: 48 h
Value kind: log10(IC50) (log10 of the value in µM)

{"columns": ["Smiles string", "Numeric readout"],
 "data": [
  ["C=C1[C@H](O)[C@H](O)CO[C@@H]1n1cc(F)c(O)nc1=O", 0.28],
  ["C=C1C=CCO[C@@H]1n1cc(F)c(O)nc1=O", 0.38],
  ["Cc1cn([C@H]2OCC=CC2=O)c(=O)nc1O", 1.89],
  ["O=C(Nc1ccn([C@H]2OCC=CC2=O)c(=O)n1)c1ccccc1", 1.79],
  ["C=C1C=CCO[C@@H]1n1ccc(NC(=O)c2ccccc2)nc1=O", 2.58]
]}

====

biological target: UniProt:P07607; assay: Inhibition of thymidylate synthase in mouse L1210 cells assessed as inhibition of tritium release from [5-3H]deoxycytidine after preincubation for 15 mins by liquid scintillation counting; type: cell-based
pIC50: −log10 of the molar value.
Value kind: pIC50

{"columns": ["Smiles string", "Value kind", "Value relation sign", "Numeric readout"],
 "data": [
  ["C=C1[C@H](O)[C@H](O)CO[C@@H]1n1cc(F)c(=O)[nH]c1=O", "pIC50", "=", 5.09],
  ["O=C1C=CCO[C@@H]1n1cc(F)c(=O)[nH]c1=O", "pIC50", "<", 5.00],
  ["C=C1C=CCO[C@@H]1n1cc(F)c(=O)[nH]c1=O", "pIC50", "<", 5.00],
  ["O=c1[nH]cc(F)c(=O)[nH]1", "pIC50", "≤", 5.00],
  ["O=c1[nH]c(=O)n([C@H]2C[C@H](O)[C@@H](CO)O2)cc1F", "pIC50", "=", 9.22]
]}

====

IC50: recorded values
tested on: HeLa; assay: Cytostatic activity against human HeLa cells in presence of 500 uM uridine; type: functional, cell-based

{"columns": ["Smiles string", "IC50"],
 "data": [
  ["O=c1[nH]cc(F)c(=O)[nH]1", "1.1 µM"],
  ["O=c1[nH]c(=O)n([C@@H]2O[C@H](CO)[C@@H](O)[C@H]2O)cc1F", "1.6 µM"],
  ["C=C1C=CCO[C@@H]1n1cc(F)c(O)nc1=O", "8 µM"],
  ["C=C1[C@H](O)[C@H](O)CO[C@@H]1n1cc(F)c(O)nc1=O", "79 µM"],
  ["O=c1[nH]c(=O)n([C@H]2C[C@H](O)[C@@H](CO)O2)cc1F", "0.061 µM"],
  ["O=C1C=CCO[C@@H]1n1cc(F)c(O)nc1=O", "5.3 µM"]
]}

====

target: Thymidylate synthase (Mus musculus, UniProt P07607); assay: Inhibition of thymidylate synthase in mouse L1210 cells assessed as inhibition of tritium release from [5-3H]deoxyuridine after preincubation for 4 hrs by liquid scintillation counting; type: cell-based
Sequence (P07607 whole entry): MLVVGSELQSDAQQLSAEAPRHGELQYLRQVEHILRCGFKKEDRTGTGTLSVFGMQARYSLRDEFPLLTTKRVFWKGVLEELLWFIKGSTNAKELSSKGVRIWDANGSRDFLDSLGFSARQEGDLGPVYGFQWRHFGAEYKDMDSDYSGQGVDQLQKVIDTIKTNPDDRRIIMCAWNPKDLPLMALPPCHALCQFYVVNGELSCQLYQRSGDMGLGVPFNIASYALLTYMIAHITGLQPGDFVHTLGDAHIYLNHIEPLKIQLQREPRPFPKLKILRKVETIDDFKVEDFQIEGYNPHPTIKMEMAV
pIC50: −log10 of the molar value.
Please enter 1 (yes) where pIC50 is greater than or equal to 6, and 0 (no) where it is lower.

{"columns": ["Smiles string", "Classification"],
 "data": [
  ["C=C1[C@H](O)[C@H](O)CO[C@@H]1n1cc(F)c(=O)[nH]c1=O", "0 (no)"],
  ["O=c1[nH]cc(F)c(=O)[nH]1", "1 (yes)"],
  ["O=c1[nH]c(=O)n([C@H]2C[C@H](O)[C@@H](CO)O2)cc1F", "1 (yes)"],
  ["C=C1C=CCO[C@@H]1n1cc(F)c(=O)[nH]c1=O", "0 (no)"]
]}

====

biological target: UniProt P07607; experiment: Inhibition of thymidylate synthase in mouse L1210 cells assessed as inhibition of tritium release from [5-3H]deoxyuridine after preincubation for 24 hrs by liquid scintillation counting; assay type: cell-based
Value kind: IC50 (nM)

{"columns": ["Smiles string", "Numeric readout"],
 "data": [
  ["O=c1[nH]cc(F)c(=O)[nH]1", 20],
  ["C=C1C=CCO[C@@H]1n1cc(F)c(=O)[nH]c1=O", 430],
  ["O=c1[nH]c(=O)n([C@H]2C[C@H](O)[C@@H](CO)O2)cc1F", 0.4],
  ["O=C1C=CCO[C@@H]1n1cc(F)c(=O)[nH]c1=O", 63],
  ["C=C1[C@H](O)[C@H](O)CO[C@@H]1n1cc(F)c(=O)[nH]c1=O", 570]
]}

====

molecular target: Thymidylate synthase (Mus musculus, UniProt P07607); assay: Inhibition of thymidylate synthase in mouse L1210 cells assessed as inhibition of tritium release from [5-3H]deoxycytidine after preincubation for 24 hrs by liquid scintillation counting; type: cell-based
pIC50: −log10 of the molar value.
Reported pIC50 values follow for various compounds

{"columns": ["Smiles string", "pIC50"],
 "data": [
  ["C=C1[C@H](O)[C@H](O)CO[C@@H]1n1cc(F)c(=O)[nH]c1=O", 5.27],
  ["O=C1C=CCO[C@@H]1n1cc(F)c(=O)[nH]c1=O", 7.15],
  ["O=c1[nH]c(=O)n([C@H]2C[C@H](O)[C@@H](CO)O2)cc1F", 9.15],
  ["C=C1C=CCO[C@@H]1n1cc(F)c(=O)[nH]c1=O", 5.66],
  ["O=c1[nH]cc(F)c(=O)[nH]1", 7.22]
]}

====

biological target: UniProt P07607; test: Inhibition of thymidylate synthase in mouse L1210 cells assessed as inhibition of tritium release from [5-3H]deoxycytidine after preincubation for 4 hrs by liquid scintillation counting; format: cell-based
pIC50: −log10 of the molar value.

{"columns": ["Smiles string", "pIC50"],
 "data": [
  ["O=C1C=CCO[C@@H]1n1cc(F)c(=O)[nH]c1=O", 6.02],
  ["C=C1C=CCO[C@@H]1n1cc(F)c(=O)[nH]c1=O", 5.03],
  ["C=C1[C@H](O)[C@H](O)CO[C@@H]1n1cc(F)c(=O)[nH]c1=O", 5.26],
  ["O=c1[nH]cc(F)c(=O)[nH]1", 6.22]
]}

====

system: HeLa; test: Cytostatic activity against human HeLa cells in presence of 20 uM thymidine; assay type: functional, cell-based
// returns class 0 unless IC50 is strictly below 2 µM, in which case class 1

{"columns": ["Smiles string", "Classification"],
 "data": [
  ["O=c1[nH]cc(F)c(=O)[nH]1", "class 1"],
  ["O=C1C=CCO[C@@H]1n1cc(F)c(O)nc1=O", "class 0"],
  ["O=c1[nH]c(=O)n([C@H]2C[C@H](O)[C@@H](CO)O2)cc1F", "class 0"],
  ["O=c1[nH]c(=O)n([C@@H]2O[C@H](CO)[C@@H](O)[C@H]2O)cc1F", "class 1"],
  ["C=C1[C@H](O)[C@H](O)CO[C@@H]1n1cc(F)c(O)nc1=O", "class 0"],
  ["C=C1C=CCO[C@@H]1n1cc(F)c(O)nc1=O", "class 0"]
]}

====

test system: Human alphaherpesvirus 2; assay: Antiviral activity against Herpes simplex virus type-2 infected in HEL cells assessed as inhibition of virus-induced cytopathic effect; format: functional, organism-based
Activity calls are given as the source filed them. The calls are words filed in the database; no cut-off is given here.
Value kind: Activity

{"columns": ["Smiles string", "Value kind", "Result"],
 "data": [
  ["O=c1[nH]c(=O)n([C@H]2C[C@H](O)[C@@H](CO)O2)cc1F", "Activity", "inactive"],
  ["C=C1C=CCO[C@@H]1n1cc(F)c(O)nc1=O", "Activity", "inactive"],
  ["C=C1C=CCO[C@@H]1n1cc(C)c(O)nc1=O", "Activity", "inactive"],
  ["O=C1C=CCO[C@@H]1n1cc(C(F)(F)F)c(O)nc1=O", "Activity", "inactive"],
  ["C=C1[C@H](O)[C@H](O)CO[C@@H]1n1ccc(O)nc1=O", "Activity", "inactive"],
  ["O=C(Nc1ccn([C@H]2OCC=CC2=O)c(=O)n1)c1ccccc1", "Activity", "inactive"],
  ["O=C1C=CCO[C@@H]1n1ccc(O)nc1=O", "Activity", "inactive"],
  ["C=C1C=CCO[C@@H]1n1ccc(N)nc1=O", "Activity", "inactive"],
  ["C=C1C=CCO[C@@H]1n1ccc(NC(=O)c2ccccc2)nc1=O", "Activity", "inactive"],
  ["C=C1C=CCO[C@@H]1n1ccc(O)nc1=O", "Activity", "inactive"],
  ["C=C1[C@H](O)[C@H](O)CO[C@@H]1n1cc(C)c(O)nc1=O", "Activity", "inactive"],
  ["O=c1[nH]cc(F)c(=O)[nH]1", "Activity", "inactive"]
]}
